# assay_summary: Mycobacterium tuberculosis growth inhibition, primary screen (AID 1259343)
# measurement_parameters: at 10 µM, hits give high values
Among all 6,200 compounds or so, about 2,900 (47%) were called active. The set was probably picked from earlier hits. The list shows a part of the results.
Task for the reader: assign each of the following compounds its reported inhibition.
Give bare numbers, in %.

- compound: "FC(F)(F)c1cc(-c2ccc(Cl)cc2)nc(-n2cccn2)n1"
  inhibition [%]: 61.6

Please go through the list and note inhibition for each compound.
1. Cc1ccccc1N1CCN(Cc2cc(C#CCO)cs2)C(C)C1 (stereo unspecified)
2. CC(C)=CCc1c(O)ccc(C(=O)Cc2ccccc2)c1O

-56.2
59.8

Please go through the list and note inhibition for each compound.
1. CC1CCc2[nH]c3c(C(=O)NCC4CN(C)CCO4)cccc3c2C1 (stereo unspecified)
2. c1ccc2c(CCNc3ccc(Nc4ccncc4)cc3)c[nH]c2c1
3. O=C(NCCc1c[nH]c2ccccc12)c1cn(Cc2ccccc2Cl)nn1

39.4
72.8
21.3
